B1: KCTD10 (parent)
chain: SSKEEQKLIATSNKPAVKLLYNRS

- Variants of: B1
- procedure_summary: protein stability index of a GFP-peptide fusion (GPS, HEK-293T) (PSI 1-6); higher = more stable;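 also: lentivirally expressed fusions sorted by FACS into six bins by GFP to DsRed ratio, PSI derived from sequencing read proportions per bin multiplied by bin number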
- recorded_conditions: c terminus: a fixed tail appended
attribute_measured: protein stability index
Just the number.

QUERY: So what does the record say about protein stability index for `P15Q` ?
RESULT: 3.96

QUERY: So what does the record say about protein stability index for `Y21L` ?
RESULT: 4.06

QUERY: So what does the record say about protein stability index for `S2K` ?
RESULT: 3.97

QUERY: So what does the record say about protein stability index for `A16T` ?
RESULT: 4.1

QUERY: So what does the record say about protein stability index for `S24P` ?
RESULT: 4.09

QUERY: So what does the record say about protein stability index for `P15N` ?
RESULT: 4.08

QUERY: So what does the record say about protein stability index for `A10S` ?
RESULT: 4.01

QUERY: So what does the record say about protein stability index for `S1P` ?
RESULT: 3.98

QUERY: So what does the record say about protein stability index for `S12G` ?
RESULT: 3.89

QUERY: So what does the record say about protein stability index for `K3V` ?
RESULT: 3.96

QUERY: So what does the record say about protein stability index for `K3R` ?
RESULT: 3.97

QUERY: So what does the record say about protein stability index for `Y21W` ?
RESULT: 4.05
